Attribute: GI50
tested on: SF-268; assay: NCI tumour cell line growth inhibition, 48 h
Activity calls are given as the source filed them. Cut-off read from the data, not from the text of the source: active = GI50 up to about 1.1 µM and inactive = higher.

{"columns": ["molecule", "GI50"],
 "data": [
  ["CC(=O)NC(Cc1c[nH]c2ccccc12)C(=O)O (configuration not stated)", "> 100 µM (inactive)"],
  ["CCNc1ccc2c(c1)Cc1ccccc1-2", "46.2 µM (inactive)"],
  ["O=C(NC(Cc1c[nH]c2ccccc12)C(=O)O)/C(=C/c1ccccc1)NC(=O)c1ccccc1 (configuration not stated)", "> 100 µM (inactive)"],
  ["C/C([O-])=C(/c1nc(-c2ccc([N+](=O)[O-])o2)no1)[n+]1cc(C)ccc1C", "20.3 µM (inactive)"],
  ["O=[N+]([O-])c1ccc2nc3ccc([N+](=O)[O-])cn3c2c1", "30.5 µM (inactive)"],
  ["O=c1cnn(C2OC(CO)C(O)C2O)c(=S)[nH]1 (configuration not stated)", "11.1 µM (inactive)"],
  ["CC(C)C(Sc1nc(N)nc2nc[nH]c12)C(=O)O (configuration not stated)", "> 100 µM (inactive)"],
  ["CCN1CCC(O)(c2ccc(Oc3ccccc3)cc2)C(C(=O)c2ccc(Oc3ccccc3)cc2)C1 (configuration not stated)", "16.3 µM (inactive)"],
  ["CCOC(=O)C1Oc2ccc([N+](=O)[O-])c3c2C1(O)CCC3 (configuration not stated)", "> 100 µM (inactive)"],
  ["COc1ccc2c(c1)[n+]([O-])c(/C(C)=N/NC(=O)c1ccccc1O)c(C)[n+]2[O-]", "> 100 µM (inactive)"],
  ["Nc1ncc(N)c(NCC2(CO)CC(CCc3ccccc3)C2)n1 (configuration not stated)", "5.58 µM (inactive)"],
  ["CC(=O)N1N=C(c2c(O)ccc3ccccc23)CC1C(=O)c1ccco1 (configuration not stated)", "31.1 µM (inactive)"],
  ["N=c1oc2cc(O)ccc2cc1C(=O)NCc1ccccc1", "23.1 µM (inactive)"],
  ["O=C(NC/C(Cl)=C/Cl)Nc1c2ccccc2nc2ccccc12", "> 100 µM (inactive)"],
  ["CC(C)N(C(=O)C12C3C4C1C1C2C3C41C(=O)C(C)(C)C)C(C)C (configuration not stated)", "> 100 µM (inactive)"],
  ["Cc1nnc2ccccc2c1O", "> 100 µM (inactive)"],
  ["CCCCOC(=O)C(NC(C(=O)OCCCC)c1cc(C(C)(C)C)c(O)c(C(C)(C)C)c1)c1cc(C(C)(C)C)c(O)c(C(C)(C)C)c1 (configuration not stated)", "> 100 µM (inactive)"],
  ["COCCNC1CCC(=O)c2[nH]c3ccccc3c21 (configuration not stated)", "> 100 µM (inactive)"],
  ["c1ccc2c(c1)c1ccccc1c1n[se]nc21", "> 100 µM (inactive)"],
  ["CC(=O)OC(C(=O)O)C(OC(C)=O)C(OC(C)=O)C(OC(C)=O)C(=O)O (configuration not stated)", "> 100 µM (inactive)"],
  ["CCCCCCCCCCCCCCC(O)C[N+](C)(CCO)CCO (configuration not stated)", "1.89 µM (inactive)"],
  ["Clc1ccc(-c2nc3cc(C45CC6CC(CC(C6)C4)C5)ccc3[nH]2)cc1", "> 100 µM (inactive)"]
]}
